# study_target: PRKCB1 (PKC beta I) (Homo sapiens, UniProt P05771)
# Sequence (P05771 whole entry, species assumed): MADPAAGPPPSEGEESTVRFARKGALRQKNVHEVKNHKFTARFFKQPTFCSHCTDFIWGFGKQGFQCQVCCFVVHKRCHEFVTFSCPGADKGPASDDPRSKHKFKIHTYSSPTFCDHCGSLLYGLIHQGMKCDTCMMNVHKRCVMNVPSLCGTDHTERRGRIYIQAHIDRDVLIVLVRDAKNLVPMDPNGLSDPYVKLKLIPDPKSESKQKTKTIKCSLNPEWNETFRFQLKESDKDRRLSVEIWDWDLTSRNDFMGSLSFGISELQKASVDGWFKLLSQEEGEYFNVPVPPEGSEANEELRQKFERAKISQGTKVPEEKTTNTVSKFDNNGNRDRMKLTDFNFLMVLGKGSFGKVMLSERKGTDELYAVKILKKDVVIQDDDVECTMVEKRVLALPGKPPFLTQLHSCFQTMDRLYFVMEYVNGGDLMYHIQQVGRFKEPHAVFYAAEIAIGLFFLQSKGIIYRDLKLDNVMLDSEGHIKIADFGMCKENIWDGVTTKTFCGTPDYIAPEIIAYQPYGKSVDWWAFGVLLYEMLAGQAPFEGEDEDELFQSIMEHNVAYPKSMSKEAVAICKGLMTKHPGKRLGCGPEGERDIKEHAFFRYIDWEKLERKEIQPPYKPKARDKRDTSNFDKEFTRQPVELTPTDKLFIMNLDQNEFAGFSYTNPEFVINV
# protocol_summary: FRET-based coupled-enzyme protein kinase inhibition assay
# Type: biochemical
# condition_details: compound at 10 µM, 1% DMSO
readout_kind: inhibition at 10 µM (%)
The figure you give is taken to be in %; do not add the unit.

> print(dat)
                                  structure  unit.annotation  measured.value
1  CN(C)CCNC(=O)OC[C@H]1O[C@@H](n2cnc3c(N)ncnc32)[C@H](O)[C@@H]1O                %              -1
2  Nc1ncnc2c1ncn2[C@@H]1O[C@H](COC(=O)N2CCC[C@H]2CO)[C@@H](O)[C@H]1O                %              -6
3  Nc1ncnc2c1ncn2[C@@H]1O[C@H](COC(=O)N2CCS(=O)(=O)CC2)[C@@H](O)[C@H]1O                %               1
4  Nc1ncnc2c1ncn2[C@@H]1O[C@H](COC(=O)NC[C@H](O)CO)[C@@H](O)[C@H]1O                %             -11

Kindly consider the entry below.
Qu. Using known records, supply inhibition at 10 µM for Nc1ncnc2c1ncn2[C@@H]1O[C@H](COC(=O)N2CCN(CCc3ccccc3)CC2)[C@@H](O)[C@H]1O
Ans. 0

###

# study_target: MAPK3 (ERK1) (Homo sapiens)
# Sequence (P27361 whole entry, species assumed): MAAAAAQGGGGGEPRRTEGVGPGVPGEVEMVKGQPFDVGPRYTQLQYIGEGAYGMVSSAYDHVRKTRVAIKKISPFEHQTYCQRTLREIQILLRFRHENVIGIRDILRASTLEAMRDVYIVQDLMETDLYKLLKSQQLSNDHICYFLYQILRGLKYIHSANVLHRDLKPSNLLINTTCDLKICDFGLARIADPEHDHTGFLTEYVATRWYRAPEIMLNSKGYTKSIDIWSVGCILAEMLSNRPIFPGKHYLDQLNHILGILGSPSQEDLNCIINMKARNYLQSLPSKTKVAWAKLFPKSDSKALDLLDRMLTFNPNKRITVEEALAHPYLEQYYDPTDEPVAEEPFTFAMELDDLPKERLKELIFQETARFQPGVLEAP
# protocol_summary: FRET-based coupled-enzyme protein kinase inhibition assay
# Type: biochemical
# condition_details: compound at 10 µM, 1% DMSO
readout_kind: inhibition at 10 µM (%)
The figure you give is taken to be in %; do not add the unit.

> print(dat)
                                   compound                 study.target         readout.kind  measured.value
1  Nc1ncnc2c1ncn2[C@@H]1O[C@H](COC(=O)NCCN2CCCC2=O)[C@@H](O)[C@H]1O  MAPK3 (ERK1) (Homo sapiens)  inhibition at 10 µM               1
2  CC(C)N1CCC(NC(=O)OC[C@H]2O[C@@H](n3cnc4c(N)ncnc43)[C@H](O)[C@@H]2O)CC1  MAPK3 (ERK1) (Homo sapiens)  inhibition at 10 µM               4
3  Nc1ncnc2c1ncn2[C@@H]1O[C@H](COC(=O)NCCCc2nc3ccccc3[nH]2)[C@@H](O)[C@H]1O  MAPK3 (ERK1) (Homo sapiens)  inhibition at 10 µM               5
4  Nc1ncnc2c1ncn2[C@@H]1O[C@H](COC(=O)N2CCS(=O)(=O)CC2)[C@@H](O)[C@H]1O  MAPK3 (ERK1) (Homo sapiens)  inhibition at 10 µM              10
5  N#CCCN1CCN(C(=O)OC[C@H]2O[C@@H](n3cnc4c(N)ncnc43)[C@H](O)[C@@H]2O)CC1  MAPK3 (ERK1) (Homo sapiens)  inhibition at 10 µM               4
6  Nc1ncnc2c1ncn2[C@@H]1O[C@H](COC(=O)NC[C@H](O)CO)[C@@H](O)[C@H]1O  MAPK3 (ERK1) (Homo sapiens)  inhibition at 10 µM              12
7  Nc1ncnc2c1ncn2[C@@H]1O[C@H](COC(=O)N2CCN(C(=O)N3CCOCC3)CC2)[C@@H](O)[C@H]1O  MAPK3 (ERK1) (Homo sapiens)  inhibition at 10 µM               3
8  CS(=O)(=O)N1CC2(CCN(C(=O)OC[C@H]3O[C@@H](n4cnc5c(N)ncnc54)[C@H](O)[C@@H]3O)CC2)c2ccccc21  MAPK3 (ERK1) (Homo sapiens)  inhibition at 10 µM               8

Qu. Using known records, supply inhibition at 10 µM for C[C@@H](NC(=O)OC[C@H]1O[C@@H](n2cnc3c(N)ncnc32)[C@H](O)[C@@H]1O)c1ccc(Cl)cc1
Ans. 6

Qu. Using known records, supply inhibition at 10 µM for Nc1ncnc2c1ncn2[C@@H]1O[C@H](COC(=O)N2CCN(Cc3ccccc3)CC2CO)[C@@H](O)[C@H]1O (stereo partly shown)
Ans. 5

Qu. Using known records, supply inhibition at 10 µM for CN(C)CCNC(=O)OC[C@H]1O[C@@H](n2cnc3c(N)ncnc32)[C@H](O)[C@@H]1O
Ans. 2

Qu. Using known records, supply inhibition at 10 µM for Nc1ncnc2c1ncn2[C@@H]1O[C@H](COC(=O)N2CCC(Cc3ccc(F)cc3)C2)[C@@H](O)[C@H]1O (stereo partly shown)
Ans. -2

Qu. Using known records, supply inhibition at 10 µM for CN1CCN(CCNC(=O)OC[C@H]2O[C@@H](n3cnc4c(N)ncnc43)[C@H](O)[C@@H]2O)CC1
Ans. 2

Qu. Using known records, supply inhibition at 10 µM for Nc1ncnc2c1ncn2[C@@H]1O[C@H](COC(=O)N2CCN(CCc3ccccc3)CC2)[C@@H](O)[C@H]1O
Ans. 8

Qu. Using known records, supply inhibition at 10 µM for Nc1ncnc2c1ncn2[C@@H]1O[C@H](COC(=O)N2CCC[C@H]2CO)[C@@H](O)[C@H]1O
Ans. 5

Qu. Using known records, supply inhibition at 10 µM for Nc1ncnc2c1ncn2[C@@H]1O[C@H](COC(=O)N[C@@H]2CCN(Cc3ccccc3)C2)[C@@H](O)[C@H]1O
Ans. 5

###

Listed compounds paired with reported inhibition at 10 µM
# study_target: IRAK4 (Homo sapiens, UniProt Q9NWZ3)
# Sequence (Q9NWZ3 whole entry, species assumed): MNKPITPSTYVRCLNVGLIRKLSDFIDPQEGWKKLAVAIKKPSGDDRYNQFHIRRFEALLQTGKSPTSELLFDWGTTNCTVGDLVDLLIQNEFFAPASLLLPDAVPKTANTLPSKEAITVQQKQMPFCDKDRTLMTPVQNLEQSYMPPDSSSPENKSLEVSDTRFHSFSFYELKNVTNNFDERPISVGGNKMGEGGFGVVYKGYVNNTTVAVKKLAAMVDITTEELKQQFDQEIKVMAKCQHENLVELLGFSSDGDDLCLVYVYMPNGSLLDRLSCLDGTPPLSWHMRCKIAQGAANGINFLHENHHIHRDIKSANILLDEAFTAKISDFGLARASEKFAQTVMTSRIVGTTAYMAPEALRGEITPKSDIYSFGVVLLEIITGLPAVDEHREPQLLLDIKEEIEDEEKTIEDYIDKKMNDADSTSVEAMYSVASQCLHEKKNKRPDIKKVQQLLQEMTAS
# protocol_summary: FRET-based coupled-enzyme protein kinase inhibition assay
# Type: biochemical
# condition_details: compound at 10 µM, 1% DMSO
# Method: A biochemical assay was then performed in order to measure the protein kinase inhibition. It employed a fluorescence-based coupled-enzyme format and was based on the differential sensitivity of phosphorylated and non-phosphorylated peptides to proteolytic cleavage. […] A significant benefit of this ratiometric method for quantitating reaction progress is the elimination of well-to-well variations in FRET-peptide concentration and signal intensities. […]
The figure you give is taken to be in %; do not add the unit.

Example entries and their recorded answers appear below.
> print(dat)
                                   compound                          study.target         readout.kind  unit.annotation  measured.value
1  Nc1ncnc2c1ncn2[C@@H]1O[C@H](COC(=O)NC[C@H](O)CO)[C@@H](O)[C@H]1O  IRAK4 (Homo sapiens, UniProt Q9NWZ3)  inhibition at 10 µM                %              -8
2  Nc1ncnc2c1ncn2[C@@H]1O[C@H](COC(=O)N2CCN(Cc3ccccc3)CC2CO)[C@@H](O)[C@H]1O (stereo partly shown)  IRAK4 (Homo sapiens, UniProt Q9NWZ3)  inhibition at 10 µM                %              13
3  N#CCCN1CCN(C(=O)OC[C@H]2O[C@@H](n3cnc4c(N)ncnc43)[C@H](O)[C@@H]2O)CC1  IRAK4 (Homo sapiens, UniProt Q9NWZ3)  inhibition at 10 µM                %               0
4  Nc1ncnc2c1ncn2[C@@H]1O[C@H](COC(=O)N2CCS(=O)(=O)CC2)[C@@H](O)[C@H]1O  IRAK4 (Homo sapiens, UniProt Q9NWZ3)  inhibition at 10 µM                %               0
5  Nc1ncnc2c1ncn2[C@@H]1O[C@H](COC(=O)N[C@@H]2CCN(Cc3ccccc3)C2)[C@@H](O)[C@H]1O  IRAK4 (Homo sapiens, UniProt Q9NWZ3)  inhibition at 10 µM                %               6

Qu. Using known records, supply inhibition at 10 µM for C[C@@H](NC(=O)OC[C@H]1O[C@@H](n2cnc3c(N)ncnc32)[C@H](O)[C@@H]1O)c1ccc(Cl)cc1
Ans. 3

Qu. Using known records, supply inhibition at 10 µM for Nc1ncnc2c1ncn2[C@@H]1O[C@H](COC(=O)NCCN2CCCC2=O)[C@@H](O)[C@H]1O
Ans. 1

Qu. Using known records, supply inhibition at 10 µM for CN(C)CCNC(=O)OC[C@H]1O[C@@H](n2cnc3c(N)ncnc32)[C@H](O)[C@@H]1O
Ans. -1

Qu. Using known records, supply inhibition at 10 µM for Nc1ncnc2c1ncn2[C@@H]1O[C@H](COC(=O)N2CCN(CCc3ccccc3)CC2)[C@@H](O)[C@H]1O
Ans. 2

###

# study_target: CSNK1G2 (CK1 gamma 2) (Homo sapiens, UniProt P78368)
# Sequence (P78368 whole entry, species assumed): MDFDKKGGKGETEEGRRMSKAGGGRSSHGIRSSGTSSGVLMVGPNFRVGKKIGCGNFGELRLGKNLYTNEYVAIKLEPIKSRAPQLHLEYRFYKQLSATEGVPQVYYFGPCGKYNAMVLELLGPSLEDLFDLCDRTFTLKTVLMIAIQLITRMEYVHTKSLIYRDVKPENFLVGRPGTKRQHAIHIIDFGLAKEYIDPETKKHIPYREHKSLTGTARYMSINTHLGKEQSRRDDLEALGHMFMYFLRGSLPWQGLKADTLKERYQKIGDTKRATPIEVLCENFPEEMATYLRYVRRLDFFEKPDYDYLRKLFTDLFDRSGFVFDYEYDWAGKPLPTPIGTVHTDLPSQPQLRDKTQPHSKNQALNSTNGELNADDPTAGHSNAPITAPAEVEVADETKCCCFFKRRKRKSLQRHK
# protocol_summary: FRET-based coupled-enzyme protein kinase inhibition assay
# Assay type: biochemical
# condition_details: compound at 10 µM, 1% DMSO
readout_kind: inhibition at 10 µM (%)
The figure you give is taken to be in %; do not add the unit.

Example entries and their recorded answers appear below.
> print(dat)
                                  structure  measured.value
1  Nc1ncnc2c1ncn2[C@@H]1O[C@H](COC(=O)N[C@@H]2CCN(Cc3ccccc3)C2)[C@@H](O)[C@H]1O               7
2  CN1CCN(CCNC(=O)OC[C@H]2O[C@@H](n3cnc4c(N)ncnc43)[C@H](O)[C@@H]2O)CC1              -4
3  N#CCCN1CCN(C(=O)OC[C@H]2O[C@@H](n3cnc4c(N)ncnc43)[C@H](O)[C@@H]2O)CC1               0
4  Nc1ncnc2c1ncn2[C@@H]1O[C@H](COC(=O)N2CCN(C(=O)N3CCOCC3)CC2)[C@@H](O)[C@H]1O               0

Qu. Retrieve inhibition at 10 µM on CSNK1G2 (CK1 gamma 2) (Homo sapiens, UniProt P78368); query CN(C)CCNC(=O)OC[C@H]1O[C@@H](n2cnc3c(N)ncnc32)[C@H](O)[C@@H]1O
Ans. 0
